Target: mouse GnRH receptor (Mus musculus, UniProt Q01776)
Construct: expressed in transfected cells; host or cells: 293 cells
Sequence (Q01776 1-327): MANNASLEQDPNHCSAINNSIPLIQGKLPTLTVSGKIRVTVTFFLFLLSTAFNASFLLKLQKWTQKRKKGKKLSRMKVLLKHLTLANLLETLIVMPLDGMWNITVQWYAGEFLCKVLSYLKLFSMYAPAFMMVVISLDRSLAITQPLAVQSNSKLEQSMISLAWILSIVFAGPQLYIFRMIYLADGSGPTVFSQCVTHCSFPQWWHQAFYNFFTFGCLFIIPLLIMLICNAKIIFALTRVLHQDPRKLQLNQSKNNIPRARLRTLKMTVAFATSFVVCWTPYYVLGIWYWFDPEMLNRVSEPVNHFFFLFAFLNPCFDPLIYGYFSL
Assay: Radioligand binding, 125I-GnRH-A, 293 cells expressing mouse GnRH receptors
Conditions: read-out: mGnRH IC50
MEASURED_PROPERTY: IC50 (nM)
I only need the number, in nM, no unit after it.

Q: Given the compound `Cc1cc2c(cc1Cc1ccc(C(=O)NCCOc3ccccc3)o1)C(C)(C)CCC2(C)C` , what is its reported IC50?
Result: 240

Q: Given the compound `Cc1cc2c(cc1Cc1ccc(C(=O)NCc3cccc4ccccc34)o1)C(C)(C)CCC2(C)C` , what is its reported IC50?
Result: 21

Q: Given the compound `COC(=O)[C@H]1CC[C@H](CNC(=O)c2ccc(Cc3cc4c(cc3C)C(C)(C)CCC4(C)C)o2)CC1` , what is its reported IC50?
Result: 1010

Q: Given the compound `Cc1cc2c(cc1Cc1ccc(C(=O)NCc3nc4ccccc4[nH]3)o1)C(C)(C)CCC2(C)C` , what is its reported IC50?
Result: 10

Q: Given the compound `Cc1cc2c(cc1Cc1ccc(C(=O)NCc3ccc(CNC(=N)N)cc3)o1)C(C)(C)CCC2(C)C` , what is its reported IC50?
Result: 950

Q: Given the compound `COc1cc(OC)c(NC(=O)c2ccc(Cc3cc(-c4ccccc4)c(C)cc3C)o2)c(OC)c1` , what is its reported IC50?
Result: 119

Q: Given the compound `COCCNc1nccc(NCc2cccc(CNC(=O)c3ccc(Cc4cc5c(cc4C)C(C)(C)CCC5(C)C)o3)c2)n1` , what is its reported IC50?
Result: 36

Q: Given the compound `Cc1cc2c(cc1Cc1ccc(C(=O)NCc3cccc(Cl)c3)o1)C(C)(C)CCC2(C)C` , what is its reported IC50?
Result: 830

Q: Given the compound `COc1cc(OC)c(NC(=O)c2ccc(Cc3cc4c(cc3OC)C(C)(C)CCC4(C)C)o2)c(OC)c1` , what is its reported IC50?
Result: 5

Q: Given the compound `Cc1cc2c(cc1Cc1ccc(C(=O)NC[C@H]3CC[C@H](C(=O)O)CC3)o1)C(C)(C)CCC2(C)C` , what is its reported IC50?
Result: 7130

Q: Given the compound `Cc1cc2c(cc1Cc1ccc(C(=O)NC[C@H]3CC[C@H](CNC(=N)N)CC3)o1)C(C)(C)CCC2(C)C` , what is its reported IC50?
Result: 1400

Q: Given the compound Cc1cc2c(cc1Cc1ccc(C(=O)NCC3CCCC(CNc4ncccn4)C3)o1)C(C)(C)CCC2(C)C (stereo not drawn) , what is its reported IC50?
Result: 1570

Q: Given the compound `COc1cc(OC)c(C(C)=O)cc1NC(=O)c1ccc(Cc2cc3c(cc2C)C(C)(C)CCC3(C)C)o1` , what is its reported IC50?
Result: 22

Q: Given the compound `COc1cc(OC)c(NC(=O)c2ccc(Cc3cc(C(C)(C)C)ccc3OC)o2)c(OC)c1` , what is its reported IC50?
Result: 62

Q: Given the compound `Cc1cc2c(cc1Cc1ccc(C(=O)NC[C@H]3CC[C@H](CNc4ccnc(NC[C@@H]5CCCO5)n4)CC3)o1)C(C)(C)CCC2(C)C` , what is its reported IC50?
Result: 570
